The measured values listed here are drawn from ChEMBL document CHEMBL6134832.

- experiment notes: Metabolic stability in human liver microsomes assessed as half life
- Format: ADME, Microsome
assay endpoint: log10(half-life) (log10 of the value in h)
// units: h (pre-log); metric: half-life; scale: log10

Would you kindly share the measured log10(half-life) for COc1cncc(-n2c(=O)[nH]/c(=N\c3cc4cn(C)nc4cc3Cl)n(Cc3cc(Cl)c(F)cc3Oc3ccc(F)cc3)c2=O)c1 ? 0.30

Would you kindly share the measured log10(half-life) for COCCOc1cncc(-n2c(=O)[nH]/c(=N\c3cc4cn(C)nc4cc3Cl)n(Cc3cc(Cl)c(F)cc3F)c2=O)c1 ? 0.15

Would you kindly share the measured log10(half-life) for Cc1cncc(-n2c(=O)[nH]/c(=N\c3cc4cn(C)nc4cc3Cl)n(Cc3cc(Cl)c(F)cc3Sc3cccc(F)c3)c2=O)c1 ? 0.16

Would you kindly share the measured log10(half-life) for Cn1cc2cc(/N=c3\[nH]c(=O)n(-c4cccnc4)c(=O)n3Cc3cc(F)c(F)cc3F)c(Cl)cc2n1 ? 1.82

Would you kindly share the measured log10(half-life) for Cc1ccc(C#N)cc1Cn1c(=O)n(-c2cncc(SC3CC3)c2)c(=O)[nH]/c1=N\c1cc2cn(C)nc2cc1Cl ? -0.62
